Data provenance is patent US20240270821A1.

target: hGLP-1R (Homo sapiens, UniProt P43220); experiment: cell-based or functional assay
Sequence (P43220 24-463): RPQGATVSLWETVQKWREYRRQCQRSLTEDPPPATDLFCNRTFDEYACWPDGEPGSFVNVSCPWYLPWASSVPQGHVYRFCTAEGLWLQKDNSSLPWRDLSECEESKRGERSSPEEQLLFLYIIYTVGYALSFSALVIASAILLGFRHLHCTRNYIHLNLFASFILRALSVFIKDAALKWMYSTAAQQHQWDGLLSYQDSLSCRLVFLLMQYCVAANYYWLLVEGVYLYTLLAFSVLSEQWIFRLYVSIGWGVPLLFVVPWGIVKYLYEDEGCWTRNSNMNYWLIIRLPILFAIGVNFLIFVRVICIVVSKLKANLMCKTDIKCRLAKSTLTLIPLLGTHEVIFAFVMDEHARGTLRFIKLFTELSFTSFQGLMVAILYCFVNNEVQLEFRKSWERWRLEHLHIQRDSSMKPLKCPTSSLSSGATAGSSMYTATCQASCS
Assign labels as follows, please: True for cAMP Rel EC50, nM (in the presence of 1% HSA) below 800 nM; False for cAMP Rel EC50, nM (in the presence of 1% HSA) equal to or exceeding 800 nM.

For this binder, is cAMP Rel EC50, nM (in the presence of 1% HSA) lower than 800 nM? YXQGTFTSDFSXXLDKKAQXAFIEYLLAGGPSSGAPPPSGEX (synthetic construct; SITE 2: note = 2-Aminoisobutyric Acid; SITE 12: note = L-ornithine; SITE 13: note = alpha-methyl-leucine; SITE 17: note = Lysine is chemically modified through conjugation of the epsilon-amino group of the Lysine side chain with (2-[2-(2-Amino-ethoxy)-ethoxy]-acetyl)-(gamma-Glu)) [Example 91] True

Others:
For this binder, is cAMP Rel EC50, nM (in the presence of 1% HSA) lower than 800 nM? YXQGTFTSDFSXXLDKKAQXAFIEYLLEGGPSSGEPPPSEG (synthetic construct; SITE 2: note = 2-Aminoisobutyric Acid; SITE 12: note = L-ornithine; SITE 13: note = alpha-methyl-leucine; SITE 17: note = Lysine is chemically modified through conjugation of the epsilon-amino group of the Lysine side chain with (2-[2-(2-Amino-ethoxy)-ethoxy]-acetyl)-(gamma-Glu)) [Example 59] False

For this binder, is cAMP Rel EC50, nM (in the presence of 1% HSA) lower than 800 nM? YXQGTFTSDXSXXLDKKAQXAFIEWLLEGGPSSGEPPPSGE (synthetic construct; SITE 2: note = 2-Aminoisobutyric Acid; SITE 10: note = 3-(4-Pyridyl)-L-alanine; SITE 12: note = L-ornithine; SITE 13: note = alpha-methyl-leucine; SITE 17: note = Lysine is chemically modified through conjugation of the epsilon-amino group of the Lysine side chain with (2-[2-(2-) [Example 115] False

For this binder, is cAMP Rel EC50, nM (in the presence of 1% HSA) lower than 800 nM? YXQGTFTSDFSXXLDKKAQXAFIEYLLEGGPSSGAPPPGGE (synthetic construct; SITE 2: note = 2-Aminoisobutyric Acid; SITE 12: note = L-ornithine; SITE 13: note = alpha-methyl-leucine; SITE 17: note = Lysine is chemically modified through conjugation of the epsilon-amino group of the Lysine side chain with (2-[2-(2-Amino-ethoxy)-ethoxy]-acetyl)-(gamma-Glu)) [Example 63] True

For this binder, is cAMP Rel EC50, nM (in the presence of 1% HSA) lower than 800 nM? YXQGTFTSDFSXXLDKKAQXQFIEYLLAGGPSSGAPPPEGS (synthetic construct; SITE 2: note = 2-Aminoisobutyric Acid; SITE 12: note = L-ornithine; SITE 13: note = alpha-methyl-leucine; SITE 17: note = Lysine is chemically modified through conjugation of the epsilon-amino group of the Lysine side chain with (2-[2-(2-Amino-ethoxy)-ethoxy]-acetyl)-(gamma-Glu)) [Example 96] False
